Target: T1, mRBM20(513-621) Q558A (Mus musculus, UniProt Q3UQS8 513-621, Q558A)
T1 sequence: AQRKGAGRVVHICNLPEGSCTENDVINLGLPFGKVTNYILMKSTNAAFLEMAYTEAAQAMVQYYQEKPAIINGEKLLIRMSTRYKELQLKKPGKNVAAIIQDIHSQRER
Assay: ITC
MEASURED_PROPERTY: Kd (µM)
Respond with the bare value in µM.

Task: Query Kd for AUCUUA (ssRNA)
Output: 3.4
